Molecular target: T1, 4H850-AA
T1 chain: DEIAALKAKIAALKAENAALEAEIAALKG
Assay: two-hybrid library CCmax;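 note: natural log of median RNA to DNA barcode read ratio; higher means stronger binding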
Conditions: mean of both orientations
readout-label: interaction score
Respond numerically, and do not add a unit to the figure.

Input line: Give the measured interaction score of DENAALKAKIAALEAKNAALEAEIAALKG [4H1842-AA] .
Output line: 0.256

Input line: Which value of interaction score has been reported for DKIAALKAENAALEAKIAALEAKIAALEG [4H2725-AA] in the records?
Output line: -0.653

Input line: Bench note: what interaction score did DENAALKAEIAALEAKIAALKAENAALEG [4H1579-AA] show?
Output line: -1.18

Input line: Given the binder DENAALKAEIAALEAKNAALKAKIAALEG [4H1597-AA] , what is its reported interaction score?
Output line: 1.96

Input line: Any idea what interaction score was measured for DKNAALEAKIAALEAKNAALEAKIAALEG [4H3381-AA] ?
Output line: -1.85

Input line: I have this binder here, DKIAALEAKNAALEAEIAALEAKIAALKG [4H2438-AA] , and I need its recorded interaction score.
Output line: 0.962

Input line: Using the record for DKNAALEAKIAALKAEIAALEAENAALEG [4H3395-AA] , report its interaction score.
Output line: -1.34

Recorded values, source paper PMC10397247.
